measurement_protocol: NCI Yeast Anticancer Drug Screen. Data for the rad50 strain (AID 155);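 further: 0% = growth of vehicle-only cultures of the same strain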
measurement_setup: S. cerevisiae rad50 strain growth inhibition; at 50.0 µM; active compounds read high
Compounds without any hit were thinned out: in the full panel of roughly 79,000, 15% have a hit.
Property: growth inhibition; scope: individual compounds
endpoint: growth inhibition (%)

> print(dat)
                                    compound           endpoint  value.unit  observed.measurement
 1  O=C1CC(c2ccccc2)n2cccc21 (stereo not drawn)  growth inhibition           %                   8.1
 2  O=C(Cc1ccccc1)Oc1ccc2c(-c3ccccc3)c(C(=O)Nc3ccc(Cl)cc3)c(=O)oc2c1  growth inhibition           %                  6.75
 3                 O=c1cccc2n1CC1CNC[C@H]2C1  growth inhibition           %                  16.6
 4                      NC1(P(=O)(O)O)CCCCC1  growth inhibition           %                   2.5
 5                 CN(C)P(=S)(N(C)C)N1CCOCC1  growth inhibition           %                  -7.6
 6                        O=[N+]([O-])O.[In]  growth inhibition           %                  11.6
 7  CCOP(=O)(OCC)C(C#N)Cc1ccco1 (stereo not drawn)  growth inhibition           %                 -19.2
 8  [NH-]C(CO)C(=O)O.[NH-]C(CO)C(=O)O.[Pd+2] (stereo not drawn)  growth inhibition           %                 -8.55
 9  Oc1ccc(C(O)C2CCCCN2)cc1O (stereo not drawn)  growth inhibition           %                 -10.5
10                Oc1cc(Cl)c(Cl)cc1Cl.[Cu+2]  growth inhibition           %                    99
11                 COCCCNP(=O)(OC(C)C)OC(C)C  growth inhibition           %                  0.75
12  CC(C)CC1N=C(N(C)N=O)OP1(=O)NNc1ncccn1 (stereo not drawn)  growth inhibition           %                  -5.5
13  C[CH2][Sn]([O][Sn]([Cl])([CH2]C)[c]1ccccc1)[c]1ccccc1 (stereo not drawn)  growth inhibition           %                  81.5

====

measurement_protocol: NCI Yeast Anticancer Drug Screen. Data for the mlh1 rad18 strain (AID 175)
measurement_setup: S. cerevisiae mlh1 rad18 strain growth inhibition; at 50.0 µM; active compounds read high
The panel holds about 79,000 compounds, 15% with a hit somewhere; the sample as a whole holds those more often.
endpoint: growth inhibition (%)

> print(dat)
                                    compound           endpoint  observed.measurement
 1  N#C[S-].[La+3].c1cnc2c(c1)ccc1cccnc12.c1cnc2c(c1)ccc1cccnc12.c1cnc2c(c1)ccc1cccnc12  growth inhibition                  91.3
 2  COC(=O)C1C2CCCN2OC1(C)CO (stereo unspecified)  growth inhibition                   2.1
 3               S=c1sc(-c2ccc(Cl)cc2)c[se]1  growth inhibition                 -5.05
 4  CC(=O)SCCC(NC(=S)Nc1ccccc1)P(=O)(Oc1ccccc1)Oc1ccccc1 (stereo unspecified)  growth inhibition                 -10.3
 5  CC(=O)OC1[C@H](n2ccnc2)C[C@H]2[C@@H]3CC=C4CC(N5CCCC5)CC[C@]4(C)[C@H]3CC[C@]12C (stereo partly specified)  growth inhibition                 -55.4
 6  O=C1CC23c4ccccc4N4C(=O)CC5OCC=C6CN1C2CC6C5C43 (stereo unspecified)  growth inhibition                   6.8
 7             Cc1cc(OCC2=NCCN2)c(C)c(C)c1Cl  growth inhibition                  79.3
 8       COc1ccc2ccc3oc([N+](=O)[O-])cc3c2c1  growth inhibition                   -36
 9  COC(=O)C1=C(C)N2CCCOC2(C)C(C(=O)OC)C1c1cccc(Cl)c1 (stereo unspecified)  growth inhibition                  61.5
10  CCC[CH2][Sn]([CH2]CCC)([CH2]CCC)[CH2]CC(=O)OC  growth inhibition                  99.5
11           O=P(O)(Oc1ccccc1)Oc1ccccc1.[Ag]  growth inhibition                  92.3
